System: chimeric Caspase-9 polypeptide
Sequence (as listed by the source, change not shown): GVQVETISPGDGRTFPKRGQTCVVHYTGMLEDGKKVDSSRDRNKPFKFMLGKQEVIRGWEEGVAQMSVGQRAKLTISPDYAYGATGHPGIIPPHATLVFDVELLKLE
procedure-details: Caspase mutant classes and basal activity (Table 3)
Format: cell-based, human
measurement-context: class heading of Table 3

molecule: N405A (protein) GFGDVGALESLRGNADLAYILSMEPCGHCLIINNVNFCRESGLRTRTGSNIDCEKLRRRFSSLHFMVEVKGDLTAKKMVLALLELAQQDHGALDCCVVVILSHGCQASHLQFPGAVYGTDGCPVSVEKIVNIFNGTSCPSLGGKPKLFFIQACGGEQKDHGFEVASTSPEDESPGSNPEPDATPFQEGLRTFDQLDAISSLPTPSDIFVSYSTFPGFVSWRDPKSGSWYVETLDDIFEQWAHSEDLQSLLLRVANAVSVKGIYKQMPGCFAFLRKKLFFKTS
Basal Activity: Similar
--
molecule: F404T (protein) GFGDVGALESLRGNADLAYILSMEPCGHCLIINNVNFCRESGLRTRTGSNIDCEKLRRRFSSLHFMVEVKGDLTAKKMVLALLELAQQDHGALDCCVVVILSHGCQASHLQFPGAVYGTDGCPVSVEKIVNIFNGTSCPSLGGKPKLFFIQACGGEQKDHGFEVASTSPEDESPGSNPEPDATPFQEGLRTFDQLDAISSLPTPSDIFVSYSTFPGFVSWRDPKSGSWYVETLDDIFEQWAHSEDLQSLLLRVANAVSVKGIYKQMPGCTNFLRKKLFFKTS
Basal Activity: Decreased
--
molecule: Q328R (protein) GFGDVGALESLRGNADLAYILSMEPCGHCLIINNVNFCRESGLRTRTGSNIDCEKLRRRFSSLHFMVEVKGDLTAKKMVLALLELAQQDHGALDCCVVVILSHGCQASHLQFPGAVYGTDGCPVSVEKIVNIFNGTSCPSLGGKPKLFFIQACGGEQKDHGFEVASTSPEDESPGSNPEPDATPFQEGLRTFDRLDAISSLPTPSDIFVSYSTFPGFVSWRDPKSGSWYVETLDDIFEQWAHSEDLQSLLLRVANAVSVKGIYKQMPGCFNFLRKKLFFKTS
Basal Activity: Increased
--
molecule: D330A-N405Q (protein) GFGDVGALESLRGNADLAYILSMEPCGHCLIINNVNFCRESGLRTRTGSNIDCEKLRRRFSSLHFMVEVKGDLTAKKMVLALLELAQQDHGALDCCVVVILSHGCQASHLQFPGAVYGTDGCPVSVEKIVNIFNGTSCPSLGGKPKLFFIQACGGEQKDHGFEVASTSPEDESPGSNPEPDATPFQEGLRTFDQLAAISSLPTPSDIFVSYSTFPGFVSWRDPKSGSWYVETLDDIFEQWAHSEDLQSLLLRVANAVSVKGIYKQMPGCFQFLRKKLFFKTS
Basal Activity: Decreased
--
molecule: P318A (protein) GFGDVGALESLRGNADLAYILSMEPCGHCLIINNVNFCRESGLRTRTGSNIDCEKLRRRFSSLHFMVEVKGDLTAKKMVLALLELAQQDHGALDCCVVVILSHGCQASHLQFPGAVYGTDGCPVSVEKIVNIFNGTSCPSLGGKPKLFFIQACGGEQKDHGFEVASTSPEDESPGSNPEPDATAFQEGLRTFDQLDAISSLPTPSDIFVSYSTFPGFVSWRDPKSGSWYVETLDDIFEQWAHSEDLQSLLLRVANAVSVKGIYKQMPGCFNFLRKKLFFKTS
Basal Activity: Similar
--
molecule: D330A-S144A (protein) GFGDVGALEALRGNADLAYILSMEPCGHCLIINNVNFCRESGLRTRTGSNIDCEKLRRRFSSLHFMVEVKGDLTAKKMVLALLELAQQDHGALDCCVVVILSHGCQASHLQFPGAVYGTDGCPVSVEKIVNIFNGTSCPSLGGKPKLFFIQACGGEQKDHGFEVASTSPEDESPGSNPEPDATPFQEGLRTFDQLAAISSLPTPSDIFVSYSTFPGFVSWRDPKSGSWYVETLDDIFEQWAHSEDLQSLLLRVANAVSVKGIYKQMPGCFNFLRKKLFFKTS
Basal Activity: Decreased
--
molecule: D330A-N405T (protein) GFGDVGALESLRGNADLAYILSMEPCGHCLIINNVNFCRESGLRTRTGSNIDCEKLRRRFSSLHFMVEVKGDLTAKKMVLALLELAQQDHGALDCCVVVILSHGCQASHLQFPGAVYGTDGCPVSVEKIVNIFNGTSCPSLGGKPKLFFIQACGGEQKDHGFEVASTSPEDESPGSNPEPDATPFQEGLRTFDQLAAISSLPTPSDIFVSYSTFPGFVSWRDPKSGSWYVETLDDIFEQWAHSEDLQSLLLRVANAVSVKGIYKQMPGCFTFLRKKLFFKTS
Basal Activity: Increased
--
molecule: C403P (protein) GFGDVGALESLRGNADLAYILSMEPCGHCLIINNVNFCRESGLRTRTGSNIDCEKLRRRFSSLHFMVEVKGDLTAKKMVLALLELAQQDHGALDCCVVVILSHGCQASHLQFPGAVYGTDGCPVSVEKIVNIFNGTSCPSLGGKPKLFFIQACGGEQKDHGFEVASTSPEDESPGSNPEPDATPFQEGLRTFDQLDAISSLPTPSDIFVSYSTFPGFVSWRDPKSGSWYVETLDDIFEQWAHSEDLQSLLLRVANAVSVKGIYKQMPGPFNFLRKKLFFKTS
Basal Activity: dead
--
molecule: F406W (protein) GFGDVGALESLRGNADLAYILSMEPCGHCLIINNVNFCRESGLRTRTGSNIDCEKLRRRFSSLHFMVEVKGDLTAKKMVLALLELAQQDHGALDCCVVVILSHGCQASHLQFPGAVYGTDGCPVSVEKIVNIFNGTSCPSLGGKPKLFFIQACGGEQKDHGFEVASTSPEDESPGSNPEPDATPFQEGLRTFDQLDAISSLPTPSDIFVSYSTFPGFVSWRDPKSGSWYVETLDDIFEQWAHSEDLQSLLLRVANAVSVKGIYKQMPGCFNWLRKKLFFKTS
Basal Activity: Decreased
